Recorded viability, T/C for the following molecules
# Tested on: 475296-252-R-J1-PDC spheroid viability
# Assay summary: Anticancer human tumor 475296-252-R-J1-PDC patient-derived rectal carcinoma cell line growth inhibition [PI3K]
# Measurement parameters: second compound 1 µM; first compound 0.0316 µM; stronger effect = lower value; spheroids with HUVEC and MSC

Molecule: CC(Cn1ccc(-c2ccc(C#N)c(Cl)c2)n1)NC(=O)c1cc(C(C)O)[nH]n1 (stereo not drawn) + Cc1nc(NC(=O)N2CCCC2C(N)=O)sc1-c1ccnc(C(C)(C)C(F)(F)F)c1
Study target: 475296-252-R-J1-PDC spheroid viability
viability, T/C / %: 95.9
//
Molecule: C[C@@H](NC(=O)c1ncnc(N)c1Cl)c1ncc(C(=O)Nc2cc(C(F)(F)F)c(Cl)cn2)s1 + COc1c(OCCCN2CCOCC2)ccc2c3n(c(=NC(=O)c4cnc(N)nc4)nc12)CCN3
Study target: 475296-252-R-J1-PDC spheroid viability
viability, T/C / %: 61.9
//
Molecule: Cn1nccc1Nc1nccc(-c2ccn(C(CO)c3ccc(Cl)c(F)c3)c(=O)c2)n1 (stereo not drawn) + CC(Nc1ccc2c(c1)OCCn1cc(N3C(=O)OCC3C(F)F)nc1-2)C(N)=O
Study target: 475296-252-R-J1-PDC spheroid viability
viability, T/C / %: 84.1

* * *

Recorded pIC50 for the following molecules
# Tested on: 475296-252-R-J1-PDC spheroid viability
# Assay summary: Anticancer human tumor 475296-252-R-J1-PDC cell line growth inhibition [PI3K];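 note: spheroids exposed to agents for seven days before readout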
# Measurement parameters: curve of first compound; second compound 0.01 µM; spheroids with HUVEC and MSC
pIC50: −log10 of the molar value.

Molecule: CCCS(=O)(=O)Nc1ccc(F)c(C(=O)c2c[nH]c3ncc(-c4ccc(Cl)cc4)cc23)c1F + COc1c(OCCCN2CCOCC2)ccc2c3n(c(=NC(=O)c4cnc(N)nc4)nc12)CCN3
Study target: 475296-252-R-J1-PDC spheroid viability
pIC50: < 5.00
//
Molecule: C=CC(=O)N1CCN(c2nc(=O)n(-c3c(C)ccnc3C(C)C)c3nc(-c4c(O)cccc4F)c(F)cc23)C(C)C1 (stereo not given) + CC(Nc1ccc2c(c1)OCCn1cc(N3C(=O)OCC3C(F)F)nc1-2)C(N)=O
Study target: 475296-252-R-J1-PDC spheroid viability
pIC50: < 5.00
//
Molecule: CC(C)NCC(C(=O)N1CCN(c2ncnc3c2C(C)CC3O)CC1)c1ccc(Cl)cc1 (stereo not given) + CC(Nc1ccc2c(c1)OCCn1cc(N3C(=O)OCC3C(F)F)nc1-2)C(N)=O
Study target: 475296-252-R-J1-PDC spheroid viability
pIC50: < 5.00
//
Molecule: CCN1CCN(Cc2ccc(Nc3ncc(F)c(-c4cc(F)c5nc(C)n(C(C)C)c5c4)n3)nc2)CC1 + COc1c(OCCCN2CCOCC2)ccc2c3n(c(=NC(=O)c4cnc(N)nc4)nc12)CCN3
Study target: 475296-252-R-J1-PDC spheroid viability
pIC50: < 6.00
//
Molecule: CC1(C)CCC(Nc2ncc(C(F)(F)F)c(-c3c[nH]c4c(P(C)(C)=O)c(C#N)ccc34)n2)CN1 (stereo not given) + COc1c(OCCCN2CCOCC2)ccc2c3n(c(=NC(=O)c4cnc(N)nc4)nc12)CCN3
Study target: 475296-252-R-J1-PDC spheroid viability
pIC50: < 5.00
//
Molecule: CC(C)n1nc(-c2ccc3oc(N)nc3c2)c2c(N)ncnc21 + COc1c(OCCCN2CCOCC2)ccc2c3n(c(=NC(=O)c4cnc(N)nc4)nc12)CCN3
Study target: 475296-252-R-J1-PDC spheroid viability
pIC50: < 7.00
//
Molecule: CC1(C)CCC(Nc2ncc(C(F)(F)F)c(-c3c[nH]c4c(P(C)(C)=O)c(C#N)ccc34)n2)CN1 (stereo not given) + CC(Nc1ccc2c(c1)OCCn1cc(N3C(=O)OCC3C(F)F)nc1-2)C(N)=O
Study target: 475296-252-R-J1-PDC spheroid viability
pIC50: < 5.00
//
Molecule: CC1(C)CCC(CN2CCN(c3ccc(C(=O)NS(=O)(=O)c4ccc(NCC5CCOCC5)c([N+](=O)[O-])c4)c(Oc4cnc5[nH]ccc5c4)c3)CC2)=C(c2ccc(Cl)cc2)C1 + CC(Nc1ccc2c(c1)OCCn1cc(N3C(=O)OCC3C(F)F)nc1-2)C(N)=O
Study target: 475296-252-R-J1-PDC spheroid viability
pIC50: < 5.00
//
Molecule: C[C@@H](NC(=O)c1ncnc(N)c1Cl)c1ncc(C(=O)Nc2cc(C(F)(F)F)c(Cl)cn2)s1 + CC(Nc1ccc2c(c1)OCCn1cc(N3C(=O)OCC3C(F)F)nc1-2)C(N)=O
Study target: 475296-252-R-J1-PDC spheroid viability
pIC50: < 5.00
//
Molecule: CC1(C)CCC(CN2CCN(c3ccc(C(=O)NS(=O)(=O)c4ccc(NCC5CCOCC5)c([N+](=O)[O-])c4)c(Oc4cnc5[nH]ccc5c4)c3)CC2)=C(c2ccc(Cl)cc2)C1 + COc1c(OCCCN2CCOCC2)ccc2c3n(c(=NC(=O)c4cnc(N)nc4)nc12)CCN3
Study target: 475296-252-R-J1-PDC spheroid viability
pIC50: < 5.00
